- assayed system: OE19 (3A1) (Homo sapiens)
- Sequence (P30838 whole entry): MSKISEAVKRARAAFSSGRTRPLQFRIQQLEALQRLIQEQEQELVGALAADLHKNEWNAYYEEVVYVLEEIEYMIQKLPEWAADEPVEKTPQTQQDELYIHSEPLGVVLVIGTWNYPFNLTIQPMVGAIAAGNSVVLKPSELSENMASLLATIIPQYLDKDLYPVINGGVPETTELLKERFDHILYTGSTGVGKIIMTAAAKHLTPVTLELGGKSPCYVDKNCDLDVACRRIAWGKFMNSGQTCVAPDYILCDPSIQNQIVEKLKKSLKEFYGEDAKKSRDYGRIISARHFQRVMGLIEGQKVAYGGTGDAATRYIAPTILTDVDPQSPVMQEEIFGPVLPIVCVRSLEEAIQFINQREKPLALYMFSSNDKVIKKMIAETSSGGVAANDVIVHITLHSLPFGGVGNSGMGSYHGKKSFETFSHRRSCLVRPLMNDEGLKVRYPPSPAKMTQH
- assay details: Cellular ALDEFLUOR assay in OE19 cells (preferential ALDH3A1 expression)
Each record here notes measured log10(AC50).
In plain terms, each number is the log10 of measured AC50 in µM.

molecule: O=C(NCc1cccc(CC(F)(F)F)c1)c1csc(N2CCN(c3cccc(C(F)(F)F)c3)CC2)n1 [NCGC01407930-01]
assayed system: OE19 (3A1) (Homo sapiens)
recorded measurement: -0.07

molecule: Cc1cccc(CNC(=O)c2csc(N3CCN(c4ccc(C(F)(F)F)cn4)CC3)n2)c1 [NCGC01210237-01]
assayed system: OE19 (3A1) (Homo sapiens)
recorded measurement: 0.50

// query Record Cc1cccc(CNC(=O)c2csc(N3CCN(c4cccc([S+](C)(=O)[O-])c4)CC3)n2)c1 [NCGC01210723-01] : what is its log10(AC50) with OE19 (3A1) (Homo sapiens)?
// result 0.09

// query Quick one: Cc1cccc(CNC(=O)c2csc(N3CCN(c4cccc(Sc5ccc(C)cc5C)c4)CC3)n2)c1 [NCGC01211184-01]
// result -0.51

// query Another molecule: Cc1cccc(CNC(=O)c2csc(N3CCN(c4ccc(C)c(C)c4)CC3)n2)c1 [NCGC01211295-01]
// result 0.34

// query // repeat for Cc1cccc(CNC(=O)c2csc(N3CCN(c4ccc(Br)cc4)CC3)n2)c1 [NCGC01211165-01] and report
// result -0.15

// query Same question, O=C(NCc1ccc(-c2ccsc2)cc1)c1csc(N2CCN(c3cccc(C(F)(F)F)c3)CC2)n1 [NCGC01397331-01] this time
// result 0.48
